B1: Azoarcus group I ribozyme (parent)
chain: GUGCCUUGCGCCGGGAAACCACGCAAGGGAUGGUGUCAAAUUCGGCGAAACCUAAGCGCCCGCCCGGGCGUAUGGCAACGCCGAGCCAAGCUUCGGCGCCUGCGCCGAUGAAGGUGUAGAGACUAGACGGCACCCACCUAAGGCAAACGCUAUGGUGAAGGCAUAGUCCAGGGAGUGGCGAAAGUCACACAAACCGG

Variants of: B1
Test: reverse-splicing fitness (ratio to wild type); higher = more active; in vitro selection; Mg2+ level not given
Mark True for reported reverse-splicing fitness of 0.006 or greater; mark False for anything smaller.

Ask: Could you tell me if the measured reverse-splicing fitness of C82A A111C A145C C150U C169G U176C reaches 0.006 or more?
Result: True

Ask: Is reported reverse-splicing fitness greater than or equal to 0.006 here: A111U A120U A145C C150U C169A U176G
Result: False

Ask: Please tell me: is the variant C82U A111U A145G C150U at or over 0.006 in terms of reverse-splicing fitness?
Result: True

Ask: Reported reverse-splicing fitness at or above 0.006? A111C A120U A145C C150A C169A
Result: False

Ask: Is reverse-splicing fitness for C82A A111G A120U A145C C150A C169G U176A at or above 0.006?
Result: False

Ask: Does the reported reverse-splicing fitness for C82A A111U A120U A145G C169G fall at or above the 0.006 mark?
Result: False

Ask: Assess whether reported reverse-splicing fitness for C82G C150U C169G U176C sits at 0.006 or higher.
Result: True

Ask: Has C82A A111G A145U C150A C169U U176G a recorded reverse-splicing fitness greater than or equal to 0.006?
Result: True

Ask: For this variant, is measured reverse-splicing fitness 0.006 or higher? C82G A111U A120G A145C C150U U176C
Result: True

Ask: reverse-splicing fitness >= 0.006 for C82G A111G A120U A145U C150U C169A ?
Result: False

Ask: // inclusive: reverse-splicing fitness at least 0.006? input: C82G A120C A145U U176G
Result: True

Ask: Is the recorded value of reverse-splicing fitness equal to or greater than 0.006 for this variant? C82G A111C A145U C150U U176G
Result: True

Ask: Determine whether measured reverse-splicing fitness meets or exceeds 0.006 for C82U A145C C150U C169G U176G
Result: False

Ask: Reported reverse-splicing fitness at or above 0.006? A111G A120G A145U C150A C169A
Result: True

Ask: State whether the measured reverse-splicing fitness reaches 0.006, counting equality as reaching it, for A111G A145U C150G C169G U176C
Result: False

Ask: I'd appreciate it if you could say whether A111C A145U C150U C169A U176G has reverse-splicing fitness at least equal to 0.006.
Result: True

Ask: Check this variant for reverse-splicing fitness at or above 0.006: C82A A120U A145U C169A
Result: False

Ask: Is reported reverse-splicing fitness greater than or equal to 0.006 here: C82U A111U A120U A145G C150A C169U U176A
Result: False

Ask: Textbook exercise: given the entry C82A A111G A120U A145G C169A U176A , state whether its reverse-splicing fitness is greater than or equal to 0.006.
Result: False

Ask: Kindly determine if reverse-splicing fitness recorded for A111G A120C C150U C169U U176A is above or exactly 0.006.
Result: True

Ask: Does the variant C82U A111U A120U A145C C150U C169U have recorded reverse-splicing fitness that is 0.006 or more?
Result: False

Ask: Quick check: does C82A A111U A145U C169G U176A have reverse-splicing fitness greater than or equal to 0.006?
Result: True

Ask: Could you please find out whether C82A A111U A120U C150U C169U U176G has reverse-splicing fitness that meets 0.006 or exceeds it?
Result: False

Ask: Item C82G A120U C150U C169G U176C with reverse-splicing fitness of 0.006 or above?
Result: False

Ask: # bool: reverse-splicing fitness of C82A A120U C169U U176C >= 0.006
Result: False

Ask: Quick check: does C82U A111G C150U C169G U176G have reverse-splicing fitness greater than or equal to 0.006?
Result: False

Ask: Threshold query (reverse-splicing fitness >= 0.006) on C82G A111G C150A
Result: True

Ask: // inclusive: reverse-splicing fitness at least 0.006? input: C82G A111U A120U A145U C150U C169G U176A
Result: False

Ask: Quick check, reverse-splicing fitness >= 0.006? C82U A111G A120G C150G C169G
Result: True

Ask: Reported reverse-splicing fitness at or above 0.006? C82A A111G A120C C150A
Result: True

Ask: Evaluate C82U A111G C169U U176C : reverse-splicing fitness at minimum 0.006?
Result: True

Ask: Check this variant for reverse-splicing fitness at or above 0.006: A111G A120G A145C C150G C169U U176C
Result: True

Ask: # bool: reverse-splicing fitness of A111G A120G A145U C169A U176C >= 0.006
Result: True

Ask: Determine whether this variant has reverse-splicing fitness no lower than 0.006: C82A A111U A120G A145U C150A C169U U176A
Result: True

Ask: Check the entry C82A A111G A145U C150U C169U U176A : does reverse-splicing fitness equal or exceed 0.006?
Result: True

Ask: Quick check, reverse-splicing fitness >= 0.006? C82A A111U A120C A145C C150U C169U U176C
Result: True

Ask: Hi, just wondering whether C82U A111G A120C C150U U176A shows reverse-splicing fitness of 0.006 or higher.
Result: True

Ask: Test whether the variant A145C C150G C169G records reverse-splicing fitness of 0.006 or higher.
Result: True

Ask: Say whether A111G A120C A145G C150A U176C shows reverse-splicing fitness of 0.006 or more.
Result: True

Ask: Assess whether reported reverse-splicing fitness for C82A A120U A145G C150A C169G U176G sits at 0.006 or higher.
Result: False

Ask: Hello, I need to know if C82U A111G A120C A145G C150A has measured reverse-splicing fitness not below 0.006. Thanks!
Result: True

Ask: hey, is reverse-splicing fitness for this one >= 0.006? C82U A111U A120G A145G C150U C169U
Result: True

Ask: Assess whether reported reverse-splicing fitness for A111C A120C A145C C150G C169U U176C sits at 0.006 or higher.
Result: True

Ask: Record C82G A111C A120C A145G C150U C169U U176C ; criterion: reverse-splicing fitness no lower than 0.006. Met?
Result: True

Ask: Given A111G A120U A145U C150G , state whether its reverse-splicing fitness is at least 0.006.
Result: True

Each recorded value in this set is attributed to the RNAGym collection of RNA variant scans (doi:10.1093/molbev/msab373).
